- System: 134 cancer cell lines
- test.summary: Cell viability assay (ATPlite, 72 hours), IC50 on cancer cell line panel
- assay.conditions: Homo sapiens, MDA-MB-468, read-out: IC50 in cell proliferation assay, MDA-MB-468 cell line
pIC50: −log10 of the molar value.
observed.property: pIC50

compound_smiles=Cc1cc(Nc2ncc(Cl)c(Nc3ccccc3S(=O)(=O)C(C)C)n2)c(OC(C)C)cc1C1CCNCC1 observed=5.35

(1) COc1cc2ncnc(Nc3ccc(F)c(Cl)c3)c2cc1NC(=O)/C=C/CN1CCCCC1
(2) Cn1cnc2c(F)c(Nc3ccc(Br)cc3F)c(C(=O)NOCCO)cc21
Lab note: record which item had the higher pIC50, 1 or 2 . Please indicate the selected item by its label.
1
